Origin of values: ChEMBL document CHEMBL1148651

System: A549
Assay: Antiproliferative activity against human A549 cell line
Format: functional, cell-based
Measured pIC50 of individual entries
Friendly reminder that pIC50 comes from taking -log10 of the concentration in mol/L.

COc1cc(N)cc(Nc2c3ccccc3nc3c(OCCN(CCCl)CCCl)cccc23)c1; 7.04
Cc1cc(N)cc(Nc2c3ccccc3nc3c(OCCN(CCCl)CCCl)cccc23)c1; 7.35
CC(=O)O[C@H]1C(=O)[C@@]2(C)[C@H]([C@H](OC(=O)c3ccccc3)[C@]3(O)C[C@H](OC(=O)[C@H](O)[C@@H](NC(=O)c4ccccc4)c4ccccc4)C(C)=C1C3(C)C)[C@]1(OC(C)=O)CO[C@@H]1C[C@@H]2O [PACLITAXEL]; 8.68
Cc1ccc(N)cc1Nc1c2ccccc2nc2c(OCCCCN(CCCl)CCCl)cccc12; 7.81
COc1ccc(Nc2c3ccccc3nc3c(OCCN(CCCl)CCCl)cccc23)cc1N; 6.93

// moving on: another record for pIC50
Name the recorded pIC50 for "COc1ccc(Nc2c3ccccc3nc3c(OCCCCN(CCCl)CCCl)cccc23)cc1N" .
7.72

----------
Measured IC50 of individual entries
Tested on: CCRF-CEM
Assay: Antiproliferative activity against human CCRF-CEM cell line
Type: functional, cell-based
Units required after the number.

Name the recorded IC50 for "Cc1ccc(N)cc1Nc1c2ccccc2nc2c(OCCN(CCCl)CCCl)cccc12" .
8 nM

Same read-out for "Nc1cc(CO)cc(Nc2c3ccccc3nc3c(OCCN(CCCl)CCCl)cccc23)c1" ?
6.7 nM

Same read-out for "Nc1cc(CO)cc(Nc2c3ccccc3nc3c(OCCCCN(CCCl)CCCl)cccc23)c1" ?
4.2 nM

----------
System: A549
Assay: Antiproliferative activity against human A549 cell line
Format: functional, cell-based
reported metric: IC50 (µM)
Respond with the bare value in µM.

COc1cc(N)cc(Nc2c3ccccc3nc3c(OCCCCN(CCCl)CCCl)cccc23)c1; 0.019
OCc1cc(O)cc(Nc2c3ccccc3nc3c(OCCN(CCCl)CCCl)cccc23)c1; 0.108

Name the recorded IC50 for "Nc1cc(CO)cc(Nc2c3ccccc3nc3ccccc23)c1" .
0.047

Same read-out for "ClCCN(CCCl)CCCOc1cccc2cc3ccccc3nc12" ?
0.166

----------
Tested on: CCRF-CEM
Assay: Antiproliferative activity against human CCRF-CEM cell line
Format: functional, cell-based
Entries whose IC50 is below 7 nM take 1 (yes); entries at or above 7 nM take 0 (no).

Check out these entries, answers already filled in.
ClCCN(CCCl)CCCOc1cccc2cc3ccccc3nc12; 0 (no)
ClCCN(CCCl)CCOc1cccc2cc3ccccc3nc12; 0 (no)
Cc1cc(N)cc(Nc2c3ccccc3nc3c(OCCCCN(CCCl)CCCl)cccc23)c1; 1 (yes)

Please indicate whether the reported IC50 of CC[C@]1(O)C[C@@H]2CN(CCc3c([nH]c4ccccc34)[C@@](C(=O)OC)(c3cc4c(cc3OC)N(C)[C@H]3[C@@](O)(C(=O)OC)[C@H](OC(C)=O)[C@]5(CC)C=CCN6CC[C@]43[C@@H]65)C2)C1 [VINBLASTINE] is strictly below 7 nM.
1 (yes)
